# target_or_system: T1, Axl (Homo sapiens, UniProt P30530)
# T1 sequence (P30530 26-451 limits assumed): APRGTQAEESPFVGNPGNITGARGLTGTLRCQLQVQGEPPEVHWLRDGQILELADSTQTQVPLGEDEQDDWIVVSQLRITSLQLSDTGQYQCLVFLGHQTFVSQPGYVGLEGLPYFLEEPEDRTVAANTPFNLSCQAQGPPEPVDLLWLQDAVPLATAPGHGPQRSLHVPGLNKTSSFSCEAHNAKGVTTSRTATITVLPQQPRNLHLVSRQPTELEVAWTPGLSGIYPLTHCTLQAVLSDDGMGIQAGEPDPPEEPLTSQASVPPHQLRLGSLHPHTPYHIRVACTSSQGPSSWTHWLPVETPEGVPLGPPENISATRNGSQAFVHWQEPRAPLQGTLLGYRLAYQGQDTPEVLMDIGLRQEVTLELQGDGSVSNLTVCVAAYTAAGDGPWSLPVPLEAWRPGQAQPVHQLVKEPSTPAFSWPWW
# experiment_summary: Affinity ELISA of CPE mutant antibodies for binding to Axl at pH 6.0 over pH 7.4
# stated_conditions: light chain variable region mutants; 1:9 dilution
endpoint_label: Affinity ELISA CPE mutant ratio (1:9, pH 6.0/7.4)
One number for each entry.

Q. Which Affinity ELISA CPE mutant ratio (1:9, pH 6.0/7.4) is listed for LC-V029N (antibody, V domains shown) VH: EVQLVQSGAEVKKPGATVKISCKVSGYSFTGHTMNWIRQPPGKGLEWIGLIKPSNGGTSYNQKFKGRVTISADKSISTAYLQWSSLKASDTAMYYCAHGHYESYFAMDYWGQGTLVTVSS VL: DIQMTQSPSSLSASVGDRVTITCKASQDNSSAVAWYQQKPGQAPRLLIYWASTRHTGVPSRFSGSGSGTEFTLTISSLQPDDFATYYCQEHFSTPLTFGQGTKVEIK ?
A. 2.652

Q. Which Affinity ELISA CPE mutant ratio (1:9, pH 6.0/7.4) is listed for LC-T097I (antibody, V domains shown) VH: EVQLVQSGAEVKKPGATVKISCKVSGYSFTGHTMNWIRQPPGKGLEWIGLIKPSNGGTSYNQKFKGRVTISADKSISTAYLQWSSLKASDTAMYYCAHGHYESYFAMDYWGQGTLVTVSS VL: DIQMTQSPSSLSASVGDRVTITCKASQDVSSAVAWYQQKPGQAPRLLIYWASTRHTGVPSRFSGSGSGTEFTLTISSLQPDDFATYYCQEHFSTPLIFGQGTKVEIK ?
A. 4.049

In the following, a different molecule is considered.
Q. Which Affinity ELISA CPE mutant ratio (1:9, pH 6.0/7.4) is listed for LC-F092S (antibody, V domains shown) VH: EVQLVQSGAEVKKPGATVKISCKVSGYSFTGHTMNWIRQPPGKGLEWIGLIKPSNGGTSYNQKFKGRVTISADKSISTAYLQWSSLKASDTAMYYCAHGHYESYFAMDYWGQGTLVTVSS VL: DIQMTQSPSSLSASVGDRVTITCKASQDVSSAVAWYQQKPGQAPRLLIYWASTRHTGVPSRFSGSGSGTEFTLTISSLQPDDFATYYCQEHSSTPLTFGQGTKVEIK ?
A. 2.937
